B1: Pistol ribozyme (parent)
chain: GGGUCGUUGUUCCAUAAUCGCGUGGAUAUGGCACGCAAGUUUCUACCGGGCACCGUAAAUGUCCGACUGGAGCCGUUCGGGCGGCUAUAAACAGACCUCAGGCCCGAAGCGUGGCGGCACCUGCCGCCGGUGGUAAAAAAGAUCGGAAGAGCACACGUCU

# Variants of: B1
# protocol_text: aptazyme ON/OFF ratio, guanine; higher = stronger switching; co-transcriptional cleavage with and without guanine
Some variants, each annotated with its measured aptazyme ON/OFF ratio.

mutation_key | aptazyme ON/OFF ratio
U7C U8C G9A U10C U11G C12G C13U | 1.17
U7C U8A G9U U11A C12U C13U | 1.22
U7A U8G G9C U10C U11G C13G | 1.26
U7G U8C G9U U10G C12G | 1.5
U7C G9C U10A U11G C12G C13U | 1.13
U7A U10A C13U | 1.07
U7G U8C U10A U11C C12U C13U | 1.07
U7G G9A U10G U11A C12A C13U | 1.09
U10A U11G C12G | 1.55
U7G U8G G9A U10C U11G C12U C13G | 1.16
U7G U8G G9U U10G C12G C13A | 1.13
U7G U8G G9C U10G U11C C12U C13G | 1.33
U8A G9C U10G U11G C12A C13G | 1.14
U7G G9C U11A C13U | 1.62
U8C G9U U11C C12G | 1.24
U8G G9C U10G U11G C12U | 1.23
U7G C13U | 1.09
U7A U8G G9U U10C U11C C12U C13G | 1.2
U7C U8A G9A U10A U11C C12G | 1.21
U7C U8C U10A C12A C13G | 1.06
U7G G9C U10C U11G C12G C13U | 1.08
U7G U8A G9A U10A U11A C12U C13U | 1.19
U7C U8A G9C U10G C12U C13G | 1.17
U7G U8A U11C C12U C13G | 1.09
G9U U10C C12U C13A | 1.69
U7G U8A U10C C13G | 1.09
U7A U8C G9C U10A U11G C12G C13U | 1.14
U8A G9A U10G U11A C12A | 1.17
U7C U10G U11A C12A C13U | 1.09
U7A U8A G9A U10G C12U | 1.14
U7A U8C G9A U10A U11G C13U | 1.17
U8C G9A U10C U11A C12A C13U | 1.19
U8A G9U U10G U11C C12G C13U | 1.12
U7A U8G G9U U10G U11A C12U C13U | 1.42
U7A G9A U10A C12U C13U | 1.2
U8G G9A U10C U11A C12U | 1.1
U7C U8A G9A U10G C12A C13G | 1.15
G9C U10G C12U C13U | 1.22
U7A U8G U10A U11G C12U C13G | 1.21
G9A U10C U11G C13U | 1.39
